assay_overview: NCI Yeast Anticancer Drug Screen. Data for the cln2 rad14 strain (AID 165);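 further: 0% = growth equal to vehicle treated cultures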
measurement_conditions: S. cerevisiae cln2 rad14 strain, at 50.0 µM, stronger effect = higher value
This is part of a sample that, as a whole, favours compounds with a hit. Of some 79,000 tested, about 15% had one in any assay.
assay_endpoint: growth inhibition (%)
Give bare numbers, in %.

CCOC(=O)CN1CCC(C(=O)OCC)CC1 = 12.9
CC(O)CNC(=O)CC(C)CC(C)(C)C (stereo not drawn) = 13.4
O=C(N/N=C\c1coc([N+](=O)[O-])c1)N/N=C/c1ccoc1 = -25.7
N#CCCCCCCC(N)=O = -1.25
CS/C(=C\c1ccc(C(=O)c2ccc(C)cc2)n1C)S(C)=O (stereo not drawn) = 11.1

State the recorded growth inhibition for every item in the following list.
1. O=c1[nH]c(/C=C(\O)c2ccncc2)nc2ccccc12
2. O=c1c2ccccc2[nH]c2c(O)c3c(=O)c4ccccc4[nH]c3cc12
3. O=C(NCCO)c1ccc(Cl)cc1
4. COc1cccc(NC(=S)Nn2c(C)nc3ccccc3c2=O)c1
5. CCN(CC)CCOC(c1ccccc1)c1ccccc1
6. Nc1ccc(O)c(C(=O)O)c1
7. CCCCCCCCCCCCCCCCCC(=O)OCC(O)CO (stereo not drawn)
8. Cc1ccc2c(c1)[nH]c(=S)n2C=C1C(=O)CC(C)(C)CC1=O

Solution:
12
-4.4
19.1
0.25
-10.8
0.8
7.2
9.05

----------
assay_overview: NCI Yeast Anticancer Drug Screen. Data for the mlh1 rad18 strain (AID 175)
measurement_conditions: S. cerevisiae mlh1 rad18 strain growth inhibition; at 50.0 µM; stronger effect = higher value
About 79,000 compounds went through this panel and 15% of them were active in at least one assay; those are over-represented in the sample as a whole.
assay_endpoint: growth inhibition (%)
One number for each entry, in %.

Cc1cn(C2CC3[O][Sn]([c]4ccccc4)([c]4ccccc4)[O]CC3O2)c(=O)[nH]c1=O (stereo not drawn) = 47

Dear colleague, could you please provide growth inhibition for the compounds listed below?
1. CCOP(C)(=O)/C(Cc1ccc(OC)c(OC)c1)=N\O (stereo not drawn)
2. OCC1NCC(O)C(O)C1O (stereo not drawn)
3. COc1ccc(S(=O)(=O)Oc2ccc(Cl)cc2)cc1
4. O=S(=O)(O)CC(O)CSSCC(O)CS(=O)(=O)O (stereo not drawn)
5. COc1ccc([N+](=O)[O-])c(OC)c1
6. COc1cc2c(cc1C(CC(C)=O)c1cc(OC)c(OC)c(OC)c1)OCO2 (stereo not drawn)
7. O=C1CC2(CCCC2)C(=O)N1c1cccc([N+](=O)[O-])c1

Solution:
[-17.2, 7.25, 9.05, -9.1, 9.05, -6.15, -4.85]

----------
For each of the compounds below, state its growth inhibition.
assay_overview: NCI Yeast Anticancer Drug Screen. Data for the bub3 strain (AID 167)
measurement_conditions: S. cerevisiae bub3 mutant strain, at 50.0 µM, stronger effect = higher value
This is part of a sample that, as a whole, favours compounds with a hit. Of some 79,000 tested, about 15% had one in any assay.
Answers are plain numbers, in %.

# annotated cases, reported growth inhibition shown
Cc1ccc(NC(=O)N2CC2C)cc1NC(=O)N1CC1C (centres undefined) = 6.9
CCC(Cl)(c1ccccc1)C(O)C(=O)OC(C)C (centres undefined) = -6.3
CCC1(O)CC2C3C(C(=O)OC)=C4Nc5ccccc5C45CCN(C31)C25 (centres undefined) = 1.9
CC(Nc1cc(Cl)ccc1C(=O)O)C(=O)O (centres undefined) = -11.2
C/C(CC(=O)NC1=CC=C(NC(=O)C/C(C)=N\Nc2ccccc2)CC1)=N/Nc1ccccc1 = -0.1

Can you give me growth inhibition for all of these, one by one?
1. CCCC(=O)c1c(C)cc(C)cc1C
2. O=C(c1ccccc1)C(c1ccccc1)(c1ccccc1)c1ccccc1
3. CCCCOCCOCC(C)O (centres undefined)
4. CC(=O)Oc1cccc(/C=C/C(=O)O)c1

Solution:
1: -7.55; 2: -10.2; 3: -8.4; 4: 39.6

----------
assay_overview: NCI Yeast Anticancer Drug Screen. Data for the mlh1 rad18 strain (AID 175)
measurement_conditions: S. cerevisiae mlh1 rad18 strain growth inhibition; at 50.0 µM
Compounds without any hit were thinned out: in the full panel of roughly 79,000, 15% have a hit. Activity calls are given as the source filed them. No stated cut-off is given here; in the data, active means growth inhibition above about 70%; inactive means the rest.
Lab note: assign the record to one of active, inactive

C(/C=C/c1ccccc1)=Nc1ccc2c(c1)Cc1ccccc1-2 = inactive
COC(=O)NC1C(=O)CCC(=O)C1C(N)=O (stereo not drawn) = inactive
CC1(C)CC2(CC3(C1)SCCS3)SCCS2 = inactive
CCNC(=O)OC1C=CS(=O)(=O)C1 (stereo not drawn) = inactive
COc1cc2c(cc1O)C(=O)CCCC2 = inactive

Problem: Would you mind telling me which call this test gave `O/N=C(/CC(O)(c1ccccc1)c1ccccc1)c1ccccc1` ?
Solution: inactive

Problem: Just curious, what result did `CC(=O)c1ccc(Cl)c(Cl)c1` get here?
Solution: inactive

Problem: Recorded test outcome, item `CCOC(=O)COc1c(C)cccc1C`
Solution: inactive

----------
assay_overview: NCI Yeast Anticancer Drug Screen. Data for the cln2 rad14 strain (AID 165);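 further: 0% = growth equal to vehicle treated cultures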
measurement_conditions: S. cerevisiae cln2 rad14 strain, at 50.0 µM, stronger effect = higher value
About 79,000 compounds went through this panel and 15% of them were active in at least one assay; those are over-represented in the sample as a whole.
assay_endpoint: growth inhibition (%)
Give bare numbers, in %.

Observe how each entry below is paired with its result.
C[N+](C)(C)N=C1CCCCC1 = 7.5
Cc1ccc(S(=O)(=O)Nn2c(-c3ccccc3)c(C#N)c(-c3ccc([N+](=O)[O-])cc3)c(C#N)c2=O)cc1 = 11.6
CC(=O)Nc1cscc1NC(C)=O = -0.2

// below: growth inhibition requested for another molecule
Problem: # get_value(readout='growth inhibition', item= `CC(=O)Oc1c(Cl)c(Cl)c(C#N)c(Cl)c1C#N` )
Solution: 10.8

----------
assay_overview: NCI Yeast Anticancer Drug Screen. Data for the sgs1 mgt1 strain (AID 161);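 further: 0% = growth of cultures given vehicle only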
measurement_conditions: S. cerevisiae sgs1 mgt1 strain, at 50.0 µM, stronger effect = higher value
About 79,000 compounds went through this panel and 15% of them were active in at least one assay; those are over-represented in the sample as a whole.
assay_endpoint: growth inhibition (%)
Numbers only, in %.

O=[N+]([O-])c1ccc(OCC#CCOc2ccc([N+](=O)[O-])c(C(F)(F)F)c2)cc1C(F)(F)F = -0.2
COc1cc(N=C(N)N=C(N)N)c2ncccc2c1 = -11.9
N#CCCNCCNCCC#N = -18.1
CN(C)c1ccccc1C(=O)N/N=C\c1ccc(O)c(O)c1 = 19.5

Need growth inhibition for each of these compounds.
1. CCOC(=O)c1c(-c2ccccc2)nn(CC(N)=O)c1CO
2. NNC(=O)c1c(-c2cccnc2)cnc2ccccc12
3. CSC(=NCc1ccccc1)Nc1c(C)cccc1C
4. COc1cc(C)n2nnnc2n1
5. NCCSSC/C=C\CSSCCN

Solution:
10.4
-29.3
6.75
0.2
-24.1

Provide growth inhibition values for the following items, in order.
1. CC(=O)Nc1ccc(/C=N/NS(=O)(=O)c2ccc(C)cc2)cc1
2. O=C(O)/C=C/C(=O)Nc1cc(Cl)cc2c1-c1c(Cl)cc(Cl)cc1C2=O

Solution:
1: 16.9; 2: 31.6

----------
Please respond with reported growth inhibition for every item in the list.
assay_overview: NCI Yeast Anticancer Drug Screen. Data for the sgs1 mgt1 strain (AID 161);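 further: 0% = growth of cultures given vehicle only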
measurement_conditions: S. cerevisiae sgs1 mgt1 strain, at 50.0 µM, stronger effect = higher value
The panel holds about 79,000 compounds, 15% with a hit somewhere; the sample as a whole holds those more often. Active and inactive are the calls of the source. Cut-off read from the data, not from the text of the source: active = growth inhibition above about 70%; inactive = the rest.

Please review the entries below; each comes with its answer.
O=c1cc(-c2cccs2)ss1 = -0.65% (inactive)
O=C(O)C(Cc1ccc(OS(=O)(=O)Cc2ccccc2)cc1)NS(=O)(=O)Cc1ccccc1 (stereo not drawn) = 8.1% (inactive)
O=S(=O)(/N=c1/ccc(NS(=O)(=O)c2ccccc2)cn1O)c1ccccc1 = 18.1% (inactive)
O=C1NC2(CCCC2)C(=O)N2CCCC12 (stereo not drawn) = 17.7% (inactive)
CC1NC(C(=O)O)Cc2cc(O)c(O)cc21 (stereo not drawn) = -30.8% (inactive)

For the 4 compounds below, give their growth inhibition values.
1. COc1ccc(/C=N/Nc2nc3ccccc3s2)cc1
2. COc1ccc(C2CC(c3c(C)nn(-c4ccccc4)c3-c3ccc(C)cc3O)=NN2c2ccccc2)cc1 (stereo not drawn)
3. C=CCN(C)C(=O)CCCCCCCC1C(CCCCCCCC)C2(Cl)C(Cl)=C(Cl)C1(Cl)C2(Cl)Cl (stereo not drawn)
4. CN(C)c1ccc(C(=N)c2ccc(N(C)C)cc2)cc1

Solution:
1. -3.15% (inactive)
2. -11.1% (inactive)
3. 8.6% (inactive)
4. -6% (inactive)

Dear colleague, could you send me growth inhibition for each of the items below? Thanks.
1. CCC(=O)NN(C(C)=O)c1ccccc1
2. Nc1cccc2ccc(Cl)nc12

Solution:
6.4% (inactive)
14.2% (inactive)

Kindly give each listed record's growth inhibition.
1. CN(C)c1ccc2c(c1)C(O)c1ccccc1-2 (stereo not drawn)
2. Cc1cc(NS(=O)(=O)c2ccc(NC(=O)c3ccc(Cl)c4c(Nc5ccc(S(N)(=O)=O)cc5)c5ccccc5nc34)cc2)no1
3. O=c1cc(-c2ccc(O)cc2)oc2cc(O)cc(O)c12
4. C=C[Si](Cl)(Cl)c1ccccc1
5. CN(C)CCN1CCCN(C)CC1
6. Cc1ccc(-c2c(N)nc(NC#N)nc2CCC(=O)Nc2ccccc2[N+](=O)[O-])cc1
7. COc1cc2c(cc1C(CC(C)=O)c1cc(OC)c(OC)c(OC)c1)OCO2 (stereo not drawn)

Solution:
1: 1.1% (inactive); 2: 33.5% (inactive); 3: -8.45% (inactive); 4: 1.65% (inactive); 5: -4.25% (inactive); 6: -14.6% (inactive); 7: -12% (inactive)

Give growth inhibition for each listed item.
1. CCC(Cc1ccco1)C(=O)NC(N)=O (stereo not drawn)
2. CCCC[N+](C)(C)CC[N+](C)(C)CCCC
3. O=C(Nc1nccs1)c1c(O)nc2sccn2c1=O
4. Cc1cc(Cl)ccc1NC(=O)C1C(=O)C(=O)N(c2ccc(Cl)cc2C)C1=O (stereo not drawn)

Solution:
-9.8% (inactive)
-10% (inactive)
18.9% (inactive)
14.8% (inactive)

Problem: # lookup: growth inhibition of `Nc1cn(Cc2ccccc2)c2nc(/C=C3/C=CC=CC3=O)c(O)n12`
Solution: -6.9% (inactive)
